Target: T1, recombinant biotinylated human CD71 extracellular domain (human, UniProt P02786 89-760, biotinylated)
T1 construct: extracellular domain; also called hCD71; huCD71 ECD
T1 sequence (P02786 other isoform, or with tags, fused parts or gaps): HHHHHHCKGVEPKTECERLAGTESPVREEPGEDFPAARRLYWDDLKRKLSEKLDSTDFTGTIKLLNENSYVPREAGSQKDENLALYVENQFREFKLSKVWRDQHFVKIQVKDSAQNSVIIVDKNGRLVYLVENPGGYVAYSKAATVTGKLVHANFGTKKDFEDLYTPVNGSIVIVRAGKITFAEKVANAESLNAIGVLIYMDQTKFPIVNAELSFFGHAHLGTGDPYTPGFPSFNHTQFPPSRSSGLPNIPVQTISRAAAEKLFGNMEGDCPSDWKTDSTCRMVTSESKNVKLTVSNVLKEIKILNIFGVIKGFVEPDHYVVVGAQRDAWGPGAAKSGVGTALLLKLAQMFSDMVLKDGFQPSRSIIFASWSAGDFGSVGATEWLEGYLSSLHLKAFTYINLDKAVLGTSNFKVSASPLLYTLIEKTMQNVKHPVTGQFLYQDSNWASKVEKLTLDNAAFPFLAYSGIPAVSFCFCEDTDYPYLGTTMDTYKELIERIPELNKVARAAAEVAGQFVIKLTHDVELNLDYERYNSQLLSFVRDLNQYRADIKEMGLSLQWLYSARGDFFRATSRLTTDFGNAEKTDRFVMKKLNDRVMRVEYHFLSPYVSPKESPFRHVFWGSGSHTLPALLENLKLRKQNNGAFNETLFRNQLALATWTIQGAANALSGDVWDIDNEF
Experiment: solution ELISA, signal ratio to HSA
Endpoint name: hCD71:HSA

Worked cases, answers included:
[[record]]
binder = "SEQ ID NO 129 (designed binder, FN3 domain) MLPAPKNLVVSRVTEDSARLSWTAPDAAFDSFYIAYAEPRPDGEAINLWVPGSERSYDLTGLKPGTEYSVLIHGVKGGLLSSPLDASFTT"
reading = 13.8

[[record]]
binder = "SEQ ID NO 159 (designed binder, FN3 domain) MLPAPKNLVVSRVTEDSARLSWTAPDAAFDSFYIAYAEPRPDGEAIYLKVPGSERSYDLTGLKPGTEYSVLIHGVKGGLLSSPLVAHFTT"
reading = 14.4

[[record]]
binder = "SEQ ID NO 162 (designed binder, FN3 domain) MLPAPKNLVVSRVTEDSARLSWTAPDAAFDSFYIAYAEPRPDGEAIKLEVPGSERSYDLTGLKPGTEYSVLIHGVKGGLLSSPLAIFTT"
reading = 17

[[record]]
binder = "SEQ ID NO 185 (designed binder, FN3 domain) MLPAPKNLVVSRVTEDSARLSWTAPDAAFDSFYIAYAEPRPDGEAIYLGVPGSERSYDLTGLKPGTEYSVLIHGVKGGLLSSPLRAKFTT"
reading = 44

[[record]]
binder = "SEQ ID NO 127 (designed binder, FN3 domain) MLPAPKNLVVSRVTEDSARLSWTAPDAAFDSFYIAYAEPRPDGEAIFLGVPGSERSYDLTGLKPGTEYSVLIHGVKGGLLSSPLSAIFTT"
reading = 66.3

[[record]]
binder = "SEQ ID NO 126 (designed binder, FN3 domain) MLPAPKNLVVSRVTEDSARLSWTAPDAAFDSFFIGYLEPQPPGEAIHLHVPGSERSYDLTGLKPGTEYNVTIQGVKGGFPSIPLHANFTT"
reading = 85

[[record]]
binder = "SEQ ID NO 174 (designed binder, FN3 domain) MLPAPKNLVVSRVTEDSARLSWTAPDAAFDSFFIGYLEPQPPGEAIQLWVPGSERSYDLTGLKPGTEYNVTIQGVKGGFPSMPLSAIFTT"
reading = 61.7

[[record]]
binder = "SEQ ID NO 172 (designed binder, FN3 domain) MLPAPKNLVVSRVTEDSARLSWTAPDAAFDSFFIGYLEPQPPGEAIVLTVPGSERSYDLTGLKPGTEYNVTIQGVKGGFPSMPLASFTT"
reading = 13.4


Continue with the binder presented below.
query: What measured hCD71:HSA goes with SEQ ID NO 103 (designed binder, FN3 domain) MLPAPKNLVVSRVTEDSARLSWTAPDAAFDSFHIVYHEPRPSGEAIWLHVPGSERSYDLTGLKPGTEYEVGIVSVKGGDLSVPLVAFFTT ?
result: 28.2
